- EXPERIMENT NOTES: Cytotoxicity against human 518A2 cells by SRB assay
- Format: functional, cell-based
For each record, write down the corresponding pIC50.
On this scale, pIC50 is minus log10 of a concentration expressed in M (mol/L).

Which measured pIC50 value corresponds to COC(=O)[C@@]1(C)CC[C@]2(C)CC[C@]3(C)C(=CC(=O)[C@@H]4[C@@]5(C)CC[C@H](O[C@H]6O[C@@H](C)[C@H](O)[C@@H](O)[C@H]6O)C(C)(C)[C@@H]5CC[C@]43C)[C@@H]2C1 ?
4.54

Suppose we examine the molecule COC(=O)[C@@]1(C)CC[C@]2(C)CC[C@]3(C)C(=CC(=O)[C@@H]4[C@@]5(C)CC[C@H](O[C@@H]6O[C@H](CO)[C@H](O)[C@H](O)[C@H]6O)C(C)(C)[C@@H]5CC[C@]43C)[C@@H]2C1 ; what pIC50 value has been reported?
4.63

###

- EXPERIMENT NOTES: Cytotoxicity against human 518A2 cells by SRB assay
- Assay type: functional, cell-based
pIC50: −log10 of the molar value.
Kindly supply the reported pIC50 values for the records listed here.

Recorded pIC50 for COC(=O)[C@@]1(C)CC[C@]2(C)CC[C@]3(C)C(=CC(=O)[C@@H]4[C@@]5(C)CC[C@H](O[C@H]6OC[C@@H](O)[C@@H](O)[C@@H]6O)C(C)(C)[C@@H]5CC[C@]43C)[C@@H]2C1 , please?
< 4.52

// lookup pIC50 for COC(=O)[C@@]1(C)CC[C@]2(C)CC[C@]3(C)C(=CC(=O)[C@@H]4[C@@]5(C)CC[C@H](O[C@@H]6OC[C@@H](O)[C@H](O)[C@H]6O)C(C)(C)[C@@H]5CC[C@]43C)[C@@H]2C1
< 4.52

Return reported pIC50; argument: COC(=O)[C@@]1(C)CC[C@]2(C)CC[C@]3(C)C(=CC(=O)[C@@H]4[C@@]5(C)CC[C@H](O[C@@H]6O[C@@H](C)[C@H](O)[C@@H](O)[C@H]6O)C(C)(C)[C@@H]5CC[C@]43C)[C@@H]2C1
< 4.52
